molecular target: human sGC (Homo sapiens); assay: Measurement of sGC activating effect in CHO-K1 cells stably expressing human sGC and mouse CNGA2; settings: CHO-K1 cells expressing human sGC and mouse CNGA2, Fura2 calcium readout, 10 μmol/L ODQ in assay buffer
Sequence (Q02153 whole entry): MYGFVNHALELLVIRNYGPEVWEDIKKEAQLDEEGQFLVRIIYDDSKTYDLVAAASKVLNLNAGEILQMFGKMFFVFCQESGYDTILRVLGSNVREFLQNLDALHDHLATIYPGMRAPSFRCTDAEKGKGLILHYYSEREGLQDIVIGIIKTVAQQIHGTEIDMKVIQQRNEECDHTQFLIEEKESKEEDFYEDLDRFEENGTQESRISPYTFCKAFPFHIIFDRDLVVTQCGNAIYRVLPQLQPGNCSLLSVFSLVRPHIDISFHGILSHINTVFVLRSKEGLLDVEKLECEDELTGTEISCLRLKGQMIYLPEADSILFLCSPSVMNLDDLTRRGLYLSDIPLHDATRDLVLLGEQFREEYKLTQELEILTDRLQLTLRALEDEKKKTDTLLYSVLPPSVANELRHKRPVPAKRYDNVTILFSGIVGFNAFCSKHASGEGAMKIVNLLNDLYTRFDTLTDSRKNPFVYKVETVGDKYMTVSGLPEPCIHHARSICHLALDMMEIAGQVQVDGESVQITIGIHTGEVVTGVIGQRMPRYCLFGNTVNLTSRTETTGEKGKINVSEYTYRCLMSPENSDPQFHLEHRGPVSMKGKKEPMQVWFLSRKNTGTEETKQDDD
Sequence (Q02108 whole entry partner): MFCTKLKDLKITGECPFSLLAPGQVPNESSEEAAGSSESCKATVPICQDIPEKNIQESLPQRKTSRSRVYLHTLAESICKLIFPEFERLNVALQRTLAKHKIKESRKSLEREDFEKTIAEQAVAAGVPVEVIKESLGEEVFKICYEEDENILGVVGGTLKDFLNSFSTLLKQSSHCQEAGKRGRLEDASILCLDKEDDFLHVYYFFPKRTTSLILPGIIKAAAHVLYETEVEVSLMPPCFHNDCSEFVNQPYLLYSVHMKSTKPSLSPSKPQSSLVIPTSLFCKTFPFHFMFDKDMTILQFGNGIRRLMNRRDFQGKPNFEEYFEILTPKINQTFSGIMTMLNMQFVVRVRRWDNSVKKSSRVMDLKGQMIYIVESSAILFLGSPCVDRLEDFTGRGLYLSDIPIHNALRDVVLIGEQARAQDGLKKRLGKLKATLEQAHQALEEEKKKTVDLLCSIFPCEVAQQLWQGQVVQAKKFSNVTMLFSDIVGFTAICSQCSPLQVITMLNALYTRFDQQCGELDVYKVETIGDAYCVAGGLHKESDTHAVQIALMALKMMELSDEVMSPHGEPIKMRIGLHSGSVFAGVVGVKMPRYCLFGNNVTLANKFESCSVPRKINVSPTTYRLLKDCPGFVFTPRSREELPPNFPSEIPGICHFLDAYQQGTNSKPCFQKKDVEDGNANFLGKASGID
pEC50: −log10 of the molar value.
assay metric: pEC50

In [3]: df
Out[3]:
                                   molecule  assay_metric  test_result
0  CC(C)c1ccc(COc2ccccc2CCN(CCCCC(=O)O)[C@H]2CCCc3cc(C(=O)O)ccc32)cc1         pEC50         8.02
1  CC(C)(C)c1cccc(COc2ccccc2CCN(CCCCC(=O)O)[C@H]2CCCc3cc(C(=O)O)ccc32)c1         pEC50         8.15
2  O=C(O)CCCCN(CCc1ccccc1OC[C@H]1CCc2ccccc2C1)C1CCCc2cc(C(=O)O)ccc21 (stereo partly drawn)         pEC50         7.96
